Below is a list of entries, each paired with its recorded inhibition value.
Test details: yeast lifespan-shortening chemical project counter-assay, dose-response inhibition of growth under permissive conditions (AID 850);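 also: growth read as optical density after one day of incubation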
Assay context: Saccharomyces cerevisiae growth inhibition, permissive control; measured here: maximum growth inhibition; at 0.781 µM; stronger effect = higher value
Measure: inhibition

Molecule: COc1cc2c(cc1OC)CN(C(=O)CSc1nnc3scc(-c4ccccc4)n13)CC2
Result: 17.1%
//
Molecule: Oc1cccc(/C=N/NC(=S)Nc2cccnc2)c1O
Result: 7.13%
//
Molecule: Cc1[nH]n(-c2ccccc2)c(=O)c1/C=N/N1C(=O)c2ccc3c4c(ccc(c24)C1=O)CC3
Result: 8.51%
//
Molecule: O=C(CSCc1ccco1)Nc1cc(C(F)(F)F)ccc1N1CCOCC1
Result: 16.7%
//
Molecule: CCc1ccc(C2NC(=S)NC3=C2C(=O)N(c2ccccc2OC)C(c2ccc(CC)cc2)N3)cc1 (stereo unspecified)
Result: 2.18%
//
Molecule: CCOc1ccccc1C1CC(c2ccc(Br)cc2)Nc2nc(N)nn21 (stereo unspecified)
Result: 10.2%
//
Molecule: O=C(COc1ccccc1)N1CCN=C1SCc1cccnc1
Result: 11.2%
//
Molecule: Cc1nnc(NC(=O)CSc2nnc(Cc3cccn3C)n2-c2ccccc2)s1
Result: 11.8%
//
Molecule: O=C1CC(N2CCN(c3nc4ccccc4s3)CC2)C(=O)N1Cc1cccs1 (stereo unspecified)
Result: 28.5%
//
Molecule: O=[N+]([O-])c1ccc(O)c(/C=N/Nc2ccccn2)c1
Result: 16.1%
//
Molecule: CC1Cc2ccccc2N1C(=O)CSC1=NCCS1 (stereo unspecified)
Result: 16.7%

----------
Tested on: Saccharomyces cerevisiae growth inhibition, permissive control
Test details: yeast lifespan-shortening chemical project counter-assay, dose-response inhibition of growth under permissive conditions (AID 850);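 also: growth read as optical density after one day of incubation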
Calls of active or inactive are those of the source. How the calls were made is not given here.
Possible outcomes: active, inactive

Compound: CCOC(=O)c1c(/N=C/c2cc([N+](=O)[O-])ccc2O)sc(C)c1C
Classification: active
//
Compound: c1cnc2c(c1)ccc1cccnc12
Classification: active
//
Compound: CC1/C(=N/O)CC(c2ccccc2)N(C)C1c1ccccc1 (stereo not given)
Classification: active
//
Compound: OC(CN1CCN(c2ccccn2)CC1)Cn1c2ccc(Cl)cc2c2cc(Cl)ccc21 (stereo not given)
Classification: active
//
Compound: COc1ccc(-c2cc(=O)n(-c3nc4ccccc4[nH]3)[nH]2)cc1
Classification: active
//
Compound: COc1ccc(-c2nnc3c4ccccc4c(C)nn23)cc1
Classification: inactive
//
Compound: O=C(Nc1nnc(-c2ccc(F)cc2)o1)c1cc(Cl)sc1Cl
Classification: active
//
Compound: COc1ccc(-c2cc(-c3ccccc3O)[nH]n2)cc1
Classification: inactive
//
Compound: Cc1ccc(-n2c(C)cc(C(=O)COC(=O)c3ccc[nH]c3=O)c2C)cc1
Classification: active
//
Compound: Cc1ccc(N=Cc2cccc(O)c2O)c(C)c1
Classification: active
//
Compound: O=C1Cc2ccccc2C(=O)N1CCc1ccccc1
Classification: inactive
//
Compound: CN1C(=O)c2cccc3c(Cl)ccc(c23)C1=O
Classification: inactive
//
Compound: CC(N=Cc1cccc(O)c1O)c1ccccc1 (stereo not given)
Classification: active
//
Compound: CC(C)CN=Cc1c(O)c([N+](=O)[O-])cc2oc3c(c12)CCCC3
Classification: active
//
Compound: C=CCc1c(C)c(C#N)c2nc3ccccc3n2c1NCCN(C)C
Classification: active
//
Compound: c1ccc2c(c1)nnn1c3ccccc3nc21
Classification: inactive
//
Compound: c1ccc(-c2ccc(C(c3ccccc3)n3ccnc3)cc2)cc1 (stereo not given)
Classification: active
//
Compound: CC(C)(C)C(O)C(Oc1ccc(Cl)cc1)n1cncn1 (stereo not given)
Classification: active
//
Compound: CC(=O)Oc1ccc(N2C(=O)C3C(C2=O)C2(C)C=CC3(C)O2)cc1 (stereo not given)
Classification: inactive
//
Compound: Cc1nc2ccc(C(=O)O)cc2[nH]1
Classification: inactive
//
Compound: O/N=C/c1ccc(OCc2ccccc2)c(Br)c1
Classification: inactive
//
Compound: CCSc1nnc(NC(=O)c2ccccn2)s1
Classification: active
//
Compound: O=c1cc(-c2ccccc2)[nH]n1-c1nc2ccccc2[nH]1
Classification: active
//
Compound: Cc1cc(C)c2c(=O)n(CC(=O)N3CCC(Cc4ccccc4)CC3)sc2n1
Classification: inactive
//
Compound: CCN(CC)c1ccc(S(=O)(=O)N2CCOCC2)cc1NC(=O)CSc1cccc[n+]1[O-]
Classification: active

----------
This listing pairs compounds with measured IC50.
Tested on: Saccharomyces cerevisiae growth inhibition, permissive control
Test details: yeast lifespan-shortening chemical project counter-assay, dose-response inhibition of growth under permissive conditions (AID 850);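 also: growth read as optical density after one day of incubation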
The source made the active and inactive calls. No rule for the calls is given here.

Compound: O=C1C(=O)c2ccccc2-c2ccccc21
IC50: 1.01 µM

Compound: CCCCCCCCC/C(=N\O)c1ccccn1
IC50: 5.48 µM

Compound: Cc1[nH]n(-c2ccccc2)c(=O)c1/C=N/N1C(=O)c2ccc3c4c(ccc(c24)C1=O)CC3
IC50: > 100 µM (inactive)

Compound: COc1ccc(C(=O)C(C)(C)NO)cc1
IC50: 46.8 µM

Compound: CSC1=NSC2=NC(=O)/C(=C\c3coc4ccccc4c3=O)C(=N)N12
IC50: > 100 µM (inactive)

Compound: CCN(CC)N=Nc1[nH]nc2nc(C)cc(C)c12
IC50: 48.6 µM

Compound: CC(C)(C)n1nc(-c2ccc(Cl)cc2)c2c(N)ncnc21
IC50: 1.1 µM

Compound: Nc1c(Nc2ccccc2)c2ccccc2oc1=O
IC50: 47.1 µM

Compound: Oc1ccc2ccccc2c1N=Nc1ccccn1
IC50: 25 µM

Compound: Cc1ccnn2cc3c(=O)n(C)c(=O)n(C)c3c12
IC50: 37.6 µM

Compound: O=C(NC1CCCCC1)Sc1ccc(Cl)cc1
IC50: > 100 µM (inactive)

Compound: C=C(C)COc1ccc(-c2[nH]ncc2Oc2ccccc2OC)c(O)c1
IC50: > 100 µM (inactive)

Compound: COc1cc(/C=N/N(C)c2ccccc2)cc(Cl)c1O
IC50: > 100 µM (inactive)

Compound: Cc1ccc(C(=O)c2c(C)oc3c2C(=O)C(=O)c2ccccc2-3)cc1
IC50: 43.6 µM

Compound: COc1ccccc1OCC(=O)n1cc(C(=O)c2cc(Cl)cc(Cl)c2O)cn1
IC50: 4.72 µM

Compound: Fc1ccc(-c2ccc(-c3nn4c(-c5ccco5)nnc4s3)o2)cc1
IC50: > 100 µM (inactive)

Compound: CCOc1ccc(N/N=C(/C#N)C(N)=O)cc1
IC50: 11 µM

Compound: Clc1cc2nc3ccccn3c2cc1Cl
IC50: > 100 µM (inactive)

Compound: O=c1[nH][nH]cc1C=Nc1ccccc1O
IC50: > 100 µM (inactive)

Compound: CC1(C)C[C@H]2C=C(C=O)[C@]3(C=O)C[C@]3(C)[C@H]2C1
IC50: 4.38 µM

Compound: Cc1conc1NC(c1cccs1)c1ccc2cccnc2c1O (stereo not given)
IC50: 44.9 µM

Compound: Cc1ccc(NC(=O)CSC2=C(C#N)C(c3ccc4c(c3)OCO4)C3=C(CCCC3=O)N2)c(C)c1 (stereo not given)
IC50: > 100 µM (inactive)

Compound: N#C/C(=N/O)c1nc(-c2ccc(F)cc2)cs1
IC50: 15.9 µM

Compound: CC1=C/C(=N\OS(=O)(=O)c2ccccc2)C(C)=CC1=O
IC50: 0.614 µM

Compound: O=C(CC(=O)c1cc(Cl)ccc1O)c1ccccc1
IC50: > 100 µM (inactive)

----------
Test system: Saccharomyces cerevisiae growth inhibition, permissive control
Test details: yeast lifespan-shortening chemical project counter-assay, dose-response inhibition of growth under permissive conditions (AID 850);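 also: growth read as optical density after one day of incubation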
The source made the active and inactive calls. The rule behind the calls is not given here.
Outcome codes: active, inactive

Compound: CCCCOC(=O)n1c(=S)oc2cc(Cl)ccc21
Assay target: Saccharomyces cerevisiae growth inhibition, permissive control
Classification: active

Compound: COc1ccc2c(C)nc(Nc3nc(C)c(C)c(=O)[nH]3)nc2c1
Assay target: Saccharomyces cerevisiae growth inhibition, permissive control
Classification: active

Compound: CCN1/C(=C/c2ccc3cccc(C)c3[n+]2CC)Sc2ccccc21
Assay target: Saccharomyces cerevisiae growth inhibition, permissive control
Classification: active

Compound: O=C(OCn1ncc(Br)c(Br)c1=O)c1ccc(F)cc1
Assay target: Saccharomyces cerevisiae growth inhibition, permissive control
Classification: active

Compound: O=c1c2ccccc2nc2c3ccccc3c3nncn3n12
Assay target: Saccharomyces cerevisiae growth inhibition, permissive control
Classification: inactive

Compound: C/C(O)=c1/ccc2cccc3nc(C)nc1c23
Assay target: Saccharomyces cerevisiae growth inhibition, permissive control
Classification: inactive

Compound: CCCCS(=O)(=O)/C=C\C=C/S(=O)(=O)CCCC
Assay target: Saccharomyces cerevisiae growth inhibition, permissive control
Classification: inactive

Compound: CCCC1COC(Cn2cncn2)(c2ccc(C)cc2)O1 (stereo not drawn)
Assay target: Saccharomyces cerevisiae growth inhibition, permissive control
Classification: active

Compound: Clc1ccc(N/N=C/c2cccnc2)cc1
Assay target: Saccharomyces cerevisiae growth inhibition, permissive control
Classification: active

Compound: CCOc1ccc(-c2[nH]ncc2Oc2cccc(OC)c2)c(O)c1
Assay target: Saccharomyces cerevisiae growth inhibition, permissive control
Classification: inactive

Compound: NC(N)=N/N=C/c1ccc(OCc2ccc(Cl)cc2)cc1
Assay target: Saccharomyces cerevisiae growth inhibition, permissive control
Classification: active

Compound: CCCCOC(=O)Sc1nc2ccccc2o1
Assay target: Saccharomyces cerevisiae growth inhibition, permissive control
Classification: active

Compound: O=C(CCc1ccccc1)NNC(=S)NC(=O)c1ccccc1
Assay target: Saccharomyces cerevisiae growth inhibition, permissive control
Classification: inactive

Compound: Cc1c(C(=O)O)cccc1-c1ccc(/C=N/Nc2ccc(Br)cc2)o1
Assay target: Saccharomyces cerevisiae growth inhibition, permissive control
Classification: active

Compound: Cn1cccc1Cc1nnc(SCC(=O)Nc2nccs2)n1CCc1ccccc1
Assay target: Saccharomyces cerevisiae growth inhibition, permissive control
Classification: inactive

Compound: O=c1c(-c2ccc(Cl)cc2)[n+]([O-])c2ccccc2n1O
Assay target: Saccharomyces cerevisiae growth inhibition, permissive control
Classification: active

Compound: Cc1noc2ncnc(Sc3ccccc3Cl)c12
Assay target: Saccharomyces cerevisiae growth inhibition, permissive control
Classification: active

Compound: CC(=O)n1cc(C(C[N+](=O)[O-])SCCN)c2ccccc21 (stereo not drawn)
Assay target: Saccharomyces cerevisiae growth inhibition, permissive control
Classification: active

Compound: CCc1ccc(C2NC(=S)NC3=C2C(=O)N(c2ccccc2OC)C(c2ccc(CC)cc2)N3)cc1 (stereo not drawn)
Assay target: Saccharomyces cerevisiae growth inhibition, permissive control
Classification: inactive

Compound: O=C(/C=C/c1ccccc1)c1cc(Br)ccc(=O)c1O
Assay target: Saccharomyces cerevisiae growth inhibition, permissive control
Classification: active

Compound: Cc1cccc(-c2nnc3sc(-c4ccccc4C)nn23)c1
Assay target: Saccharomyces cerevisiae growth inhibition, permissive control
Classification: inactive

Compound: FC(F)Sc1ccc(Nc2ncnc3nc[nH]c23)cc1
Assay target: Saccharomyces cerevisiae growth inhibition, permissive control
Classification: inactive

Compound: Cc1cc(C)cc(NS(=O)(=O)c2cnc(Cl)c(Cl)c2)c1
Assay target: Saccharomyces cerevisiae growth inhibition, permissive control
Classification: inactive

Compound: CC(C)N=c1scc(-c2cccs2)n1/N=C/c1ccc(O)c(O)c1O
Assay target: Saccharomyces cerevisiae growth inhibition, permissive control
Classification: inactive

Compound: CC1=C(C)CC2C(=O)N(c3cccc4ccccc34)C(=O)C2C1 (stereo not drawn)
Assay target: Saccharomyces cerevisiae growth inhibition, permissive control
Classification: inactive

Compound: COc1cc2c(cc1OC)CN(C(=O)CSc1nnc3scc(-c4ccccc4)n13)CC2
Assay target: Saccharomyces cerevisiae growth inhibition, permissive control
Classification: inactive

Compound: COc1ccc(N)c2c1C(=O)c1ccccc1C2=O
Assay target: Saccharomyces cerevisiae growth inhibition, permissive control
Classification: inactive

Compound: COc1ccccc1N1CCN(C(CNC(=O)c2ccco2)c2cccnc2)CC1 (stereo not drawn)
Assay target: Saccharomyces cerevisiae growth inhibition, permissive control
Classification: inactive

Compound: OC(Cn1cncn1)(c1ccccc1)c1ccccc1
Assay target: Saccharomyces cerevisiae growth inhibition, permissive control
Classification: active

Compound: COC(=O)CSCc1nc2ccccc2[nH]c1=O
Assay target: Saccharomyces cerevisiae growth inhibition, permissive control
Classification: inactive

Compound: O=C(c1ccc(Cl)cc1)c1c[nH]c(C(=O)C(Cl)(Cl)Cl)c1
Assay target: Saccharomyces cerevisiae growth inhibition, permissive control
Classification: active

Compound: Nc1ccc(O)c2c1C(=O)c1ccccc1C2=O
Assay target: Saccharomyces cerevisiae growth inhibition, permissive control
Classification: inactive

Compound: CC(C)(CNC(=S)NCCc1ccccc1)CNC(=S)NCCc1ccccc1
Assay target: Saccharomyces cerevisiae growth inhibition, permissive control
Classification: inactive

Compound: O=C(Nc1nnc(C2CC2)s1)c1ccccn1
Assay target: Saccharomyces cerevisiae growth inhibition, permissive control
Classification: inactive

Compound: Cc1ccc(O)c(-c2cc(-c3cccc(F)c3)n[nH]2)c1
Assay target: Saccharomyces cerevisiae growth inhibition, permissive control
Classification: active

Compound: C/C(=N\Nc1nc2c(s1)CCCC2)c1ccccc1
Assay target: Saccharomyces cerevisiae growth inhibition, permissive control
Classification: active

Compound: Oc1c(Br)cc(Br)cc1C=Nc1ccc2c(c1)OCO2
Assay target: Saccharomyces cerevisiae growth inhibition, permissive control
Classification: active

Compound: CN(C)CCNC=C(C(=O)Nc1ccc(Cl)cc1Cl)C(=O)Nc1ccc(Cl)cc1Cl
Assay target: Saccharomyces cerevisiae growth inhibition, permissive control
Classification: active

Compound: Cc1ccc2nc3c(nc2c1)-c1ccccc1C3=O
Assay target: Saccharomyces cerevisiae growth inhibition, permissive control
Classification: inactive

Compound: O=C1c2cccc3c(Cl)ccc(c23)C(=O)N1O
Assay target: Saccharomyces cerevisiae growth inhibition, permissive control
Classification: active

Compound: O=C(COc1ccc(Cl)cc1)NC1=NN(c2ccccc2)C(=O)C1
Assay target: Saccharomyces cerevisiae growth inhibition, permissive control
Classification: inactive

Compound: Clc1ccc(CCNc2nc3ccccc3s2)cc1
Assay target: Saccharomyces cerevisiae growth inhibition, permissive control
Classification: inactive

Compound: CC(C)(C)c1cc(C(c2cccnc2)N2CCN(CCO)CC2)cc(C(C)(C)C)c1O (stereo not drawn)
Assay target: Saccharomyces cerevisiae growth inhibition, permissive control
Classification: active

Compound: Cc1nc2cc3ccccc3cc2c(=O)[nH]1
Assay target: Saccharomyces cerevisiae growth inhibition, permissive control
Classification: inactive

Compound: CCc1cccc2c(C(=O)COC(=O)c3ccc([N+](=O)[O-])s3)c[nH]c12
Assay target: Saccharomyces cerevisiae growth inhibition, permissive control
Classification: active

Compound: Nc1[nH]c(=O)ncc1F
Assay target: Saccharomyces cerevisiae growth inhibition, permissive control
Classification: active

Compound: c1ccc(N(c2ccccc2)c2nc(-n3ccnc3)nc(-n3ccnc3)n2)cc1
Assay target: Saccharomyces cerevisiae growth inhibition, permissive control
Classification: active

Compound: Cc1cc(C(=O)COC(=O)c2ccc[nH]c2=O)c(C)n1-c1ccccc1
Assay target: Saccharomyces cerevisiae growth inhibition, permissive control
Classification: active
